measurement-protocol: NCI Yeast Anticancer Drug Screen. Data for the cln2 rad14 strain (AID 165)
particulars: S. cerevisiae cln2 rad14 strain, at 50.0 µM
About 79,000 compounds went through this panel and 15% of them were active in at least one assay; those are over-represented in the sample as a whole. The source made the active and inactive calls. Cut-off read from the data, not from the text of the source: active = growth inhibition above about 70%; inactive = the rest.
Hello, when you answer, please use one of the following outcomes: YES for active, NO for inactive

Please review the entries below; each comes with its answer.
item-smiles | category-label
C/C(=C\c1ccccc1)c1ccncc1 | NO
CCCCCCCCC(=O)NCCN(CCN)C(=O)CCCCCCCC | YES
CC(C)C1(c2ccccc2)C(=O)c2ccccc2C1=O | NO
O=C(/C=C/c1ccccc1)C1(c2ccccc2)CC1 | NO
CCOC(=O)C(C(=O)OCC)C(=O)c1ccccc1C(=O)c1ccccc1 | NO

Next item in the queue.
Call for entry O[C@H]1[C@H]2c3cc4c(cc3CN3CCC(=C[C@@H]1O)[C@H]23)OCO4 : YES

Recorded values, source PubChem BioAssay (NCI).
